Source of measurements: paper PMC9311865

Test system: MCF-7 cells
Assay: CellTiter-Glo Luminescent Cell Viability Assay, MCF-7
Assay type: cell-based
Settings: Homo sapiens, MCF7; breast cancer cell line; mean ± SD, n=3; read-out: EC50 MCF‐7

{"compound": "C=CC(=O)Nc1cccc(-c2cn(C3CCN(Cc4ccc(-c5nc6ccccn6c5-c5ccccc5)cc4)CC3)nn2)c1", "EC50": "4.29 µM"}
{"compound": "C=CC(=O)Nc1ccc(-c2cn(C3CCN(Cc4ccc(-c5nc6ccccn6c5-c5ccccc5)cc4)CC3)nn2)cc1", "EC50": "3.39 µM"}
{"compound": "C=CC(=O)Nc1cccc(-c2cn(C3CCN(Cc4ccc(-c5nc6ccccn6c5-c5ccccc5C)cc4)CC3)nn2)c1", "EC50": "4.38 µM"}
{"compound": "C=CC(=O)Nc1ccc(-c2cn(C3CCN(Cc4ccc(-c5nc6ccccn6c5-c5ccccc5C)cc4)CC3)nn2)cc1", "EC50": "4.3 µM"}
{"compound": "NC1(C(=O)N[C@@H](CCO)c2ccc(Cl)cc2)CCN(c2ncnc3[nH]ccc23)CC1 [Capivasertib, reference compound]", "EC50": "2.65 µM"}
{"compound": "C=CC(=O)Nc1cccc(-c2cn(C3CCN(Cc4ccc(-c5nc6cc[nH]c(=O)c6cc5-c5ccccc5)cc4)CC3)nn2)c1", "EC50": "0.329 µM"}
{"compound": "C=CC(=O)Nc1ccccc1-c1cn(C2CCN(Cc3ccc(-c4nc5ccccn5c4-c4ccccc4C)cc3)CC2)nn1", "EC50": "18.2 µM"}
{"compound": "C=CC(=O)Nc1cccc(-c2cn(C3CCN(Cc4ccc(-c5nc6ccc(C)cn6c5-c5ccccc5)cc4)CC3)nn2)c1", "EC50": "6.73 µM"}
